Reference for the values: patent US4048299A

system: Mixed human oral microorganisms; assay: Acid production inhibition by aldehydes in product vehicles, broth-tube technique; format: cell-based; conditions: in dextrose syrup, 1 to 5 percent aldehyde, 24 h incubation
Please provide measured Acid Production Inhibition for the entries that follow.
Answers are plain numbers, in Per Cent.

Examples with their reported Acid Production Inhibition follow.
>  <Molecule>
CC(=O)C=O

>  <Acid Production Inhibition (Per Cent)>
83

$$$$
>  <Molecule>
O=CCO

>  <Acid Production Inhibition (Per Cent)>
87

$$$$

Batch request: Acid Production Inhibition per item, same order as input.
1. O=CCCCC=O
2. O=C[C@H](O)CO (racemic)
3. CCCCCCCCCC=O

1. 16
2. 77
3. 91

###

Please provide measured Acid Production Inhibition for the entries that follow.
tested on: Mixed human oral microorganisms; assay: Acid production inhibition by aldehydes in product vehicles, broth-tube technique; type: cell-based; conditions: in tooth powder (aqueous extract), 1 to 5 percent aldehyde, 24 h incubation
State the value with its unit after it.

Examples with their reported Acid Production Inhibition follow.
>  <Compound>
CC(=O)C=O [Pyruvaldehyde]

>  <Test Readout>
Acid Production Inhibition

>  <Experimental Value>
80 Per cent

$$$$
>  <Compound>
O=CCCCC=O [Glutaraldehyde]

>  <Test Readout>
Acid Production Inhibition

>  <Experimental Value>
45 Per cent

$$$$
>  <Compound>
O=C[C@H](O)CO (racemic) [d,1-Glyceraldehyde]

>  <Test Readout>
Acid Production Inhibition

>  <Experimental Value>
18 Per cent

$$$$
>  <Compound>
O=CCO [Glycolaldehyde]

>  <Test Readout>
Acid Production Inhibition

>  <Experimental Value>
77 Per cent

$$$$

Here is the next item to consider.
Entry CCCCCCCCCCCC=O [Lauric aldehyde] : reported Acid Production Inhibition = ?
0 Per cent

###

tested on: L. casei; assay: Growth inhibition of oral microorganisms in vitro, pour plates; assay type: cell-based, Lactobacillus casei; settings: Table IX; control 8 × 10^8 to 1 × 10^9
Please provide measured Bacterial Population, Experimental for the entries that follow.

>  <Compound>
CCCCCCCCC=O

>  <Experimental Value>
4 × 10^4

$$$$

Batch request: Bacterial Population, Experimental per item, same order as input.
1. CCCCCCCCCCC=O
2. CCCCCCCCCC=O
3. CCCCCCC=O
4. CCCC=CC=O

["5 × 10^4", "4 × 10^2", "1 × 10^9", "8 × 10^8"]

###

system: Streptococcus spp. KI-R; experiment: Growth inhibition by aldehydes in product vehicles, pour-plate technique; format: cell-based; details: in mouthwash, 1 to 5 percent aldehyde, 5 h incubation
Test Readout: Growth Inhibition (Per cent)
Give bare numbers, in Per cent.

Batch request: Growth Inhibition per item, same order as input.
1. O=CCCCC=O [Glutaraldehyde]
2. O=CCO [Glycolaldehyde]
3. O=C[C@H](O)CO (racemic) [d,1-Glyceraldehyde]

99.999
100
99.99

###

Please provide measured Growth Inhibition for the entries that follow.
system: Streptococcus spp. KI-R; assay: Growth inhibition by aldehydes in product vehicles, pour-plate technique; assay type: cell-based; conditions: in dextrose syrup, 1 to 5 percent aldehyde, 5 h incubation
One number for each entry, in Per Cent.

Examples with their reported Growth Inhibition follow.
>  <Compound>
CCCCCCCCCC=O [Decanaldehyde]

>  <Growth Inhibition / Per Cent>
100

$$$$
>  <Compound>
O=CCO [Glycolaldehyde]

>  <Growth Inhibition / Per Cent>
100

$$$$
>  <Compound>
CC(=O)C=O [Pyruvaldehyde]

>  <Growth Inhibition / Per Cent>
100

$$$$

Here is the next item to consider.
Recall the recorded Growth Inhibition for O=CCCCC=O [Glutaraldehyde] with Streptococcus spp. KI-R and state it.
99.96

###

tested on: Streptococcus spp. FA-1; test: Growth inhibition of oral microorganisms in vitro, pour plates; type: cell-based; settings: Table IX; pour plates incubated 48 - 72 hours
Test Readout: Inhibition (growth)

>  <Compound>
CC=CCCCCCCCC=O [Undecylenic aldehyde]

>  <Inhibition (growth)>
100%

$$$$

Entry CCCCCCCCCCC=O [Undecylic aldehyde] : reported Inhibition (growth) = ?
> 99.99%

###

tested on: Lactobacillus casei ATCC 4646; assay: Growth inhibition by aldehydes in product vehicles, pour-plate technique; format: cell-based; details: in toothpaste (aqueous extract), 1 to 5 percent aldehyde, 2 h incubation

>  <Compound>
CC(=O)C=O

>  <Growth Inhibition>
N.S.

$$$$
>  <Compound>
O=CCCCC=O

>  <Growth Inhibition>
N.S.

$$$$
>  <Compound>
O=C[C@H](O)CO (racemic)

>  <Growth Inhibition>
N.S.

$$$$

###

system: Lactobacillus casei ATCC 4646; experiment: Growth inhibition by aldehydes in product vehicles, pour-plate technique; type: cell-based; details: in dextrose syrup, 1 to 5 percent aldehyde, 2 h incubation

>  <Compound>
O=CCO [Glycolaldehyde]

>  <Growth Inhibition>
N.S.

$$$$
>  <Compound>
O=CCCCC=O [Glutaraldehyde]

>  <Growth Inhibition>
N.S.

$$$$
>  <Compound>
O=C[C@H](O)CO (racemic) [d,1-Glyceraldehyde]

>  <Growth Inhibition>
N.S.

$$$$

###

system: Streptococcus spp. KI-R; test: Growth inhibition by aldehydes in product vehicles, pour-plate technique; format: cell-based; details: in sucrose syrup, 1 to 5 percent aldehyde, 2 h incubation
Test Readout: Growth Inhibition

>  <Smiles Notation>
CC(=O)C=O

>  <Test Readout>
Growth Inhibition

>  <Experimental Value>
> 99.9 Per cent

$$$$
>  <Smiles Notation>
CCCCCCCCCC=O

>  <Test Readout>
Growth Inhibition

>  <Experimental Value>
> 99.99 Per cent

$$$$
>  <Smiles Notation>
O=CCCCC=O

>  <Test Readout>
Growth Inhibition

>  <Experimental Value>
N.S.

$$$$

###

Please provide measured Bacterial Population, Experimental for the entries that follow.
test system: L. casei; assay: Growth inhibition of oral microorganisms in vitro, pour plates; type: cell-based, Lactobacillus casei; details: Table IX; control 8 × 10^8 to 1 × 10^9

>  <Compound>
CCCCCC=O

>  <Bacterial Population, Experimental>
1 × 10^9

$$$$
>  <Compound>
CCCCCCCCCCCC=O

>  <Bacterial Population, Experimental>
< 1 × 10^2

$$$$

Batch request: Bacterial Population, Experimental per item, same order as input.
1. CCCCCCCCCC(C)C=O (centres unmarked)
2. CCCCCCCC=O
3. CC=CCCCCCCCC=O

< 1 × 10^3
2 × 10^7
1 × 10^2
